Attribution: patent US20240092922A1

biological target: T1, human 4-1BB (h4-1BB) on transiently transfected CHO cells (human, UniProt Q07011 24-255); test: flow cytometry, CHO cells transfected with human 4-1BB, antibody at 10 µg/ml
T1 construct: also called TNFRSF9; CD137
endpoint: percentage of cells with FITC signal
Answer with the figure and its unit, nothing else.

binder: 45-7E9 (antibody, V domains shown, mouse antibody purified from ascites) VH: QVQLKQSGPGLVQPSQSLSITCTVSGFSLTTYGVHWVRQPPGKGLEWLGVIWSDGNTDYNDAFISRLSITKDNSTSQVFFKMNGLQADDTAIYYCARNSITSVSFDCWGQGTTLTVSS VL: DIVMTQSQKFMSTSVGDRVSVTCKASQNVGTTVAWYQQRPGQSPKALICSASYRYSGVPDRFTGSGSGTDFTLTISNVQSEDLAEYFCQQYNSYPLTFGSGTKLEIK
percentage of cells with FITC signal: 57.6%

binder: 55-8F6 (antibody, V domains shown, mouse antibody purified from ascites) VH: QVQLQQPGAELVRPGASVKLSCKASGYIFTSYWINWVKQRPGQGLEWIGNIYPSDSYTNYNQKFKDKATLTVDKSSSTAYMQLSSPTSEDSAVYYCTRFHYGSSPFDNWGQGTTLTVSS VL: DIQMTQSTSSLSASLGDRVTISCRASQDISHYLNWYQQKPDGTVKLLIYYTSRLHSGVPSRFSGSGSGTDYSLTISNLEQEDFATYFCQQGHTLPRTFGGGTKLEIK
percentage of cells with FITC signal: 53.6%

binder: 56-2A6 (antibody, V domains shown, mouse antibody purified from ascites) VH: QIQLVQSGPELKKPGETVKISCKASGYTFTNYGMNWVKQAPGKGFKWMGWINTYTGEPTYADDFKGRFAFSLEISASTAYLQINNLKNEDTATYFCARRDYLGAMDYWGQGTSVTVSS VL: ENVLTQSPAIMSASPGEKVTMTCRASSSVSSSYLHWYQQKSGASPKLWIYSTSNLASGVPARFSGSGSGTSYSLTISSVEAEDAATYYCQQYSAYLYTFGGGTKLEIK
percentage of cells with FITC signal: 46.6%

Read the next record carefully.
Sure, the documented percentage of cells with FITC signal for 70-3F9 (antibody, V domains shown, mouse antibody purified from ascites) VH: QVQLQQPGAELVRPGASVKLSCKASGYTFTSYWINWVKQRPGQGLEWIGNIFPSDSYTNYNQKFKDRAKLTVDKSSSTAYMQLSSPTSEDSAVYYCTRFGSSGYPDYYTMEYWGQGTSVTVSS VL: DIQMTQSPASLSASVGETVTITCRASGNIDNYLAWYQQKQGKSPQLLVYNAKTLAEGVPSRFSGSGSGTEYSLKINSLQPEDFGSYHCQQYWTIPYTFGGGTKLEIK is 56.7%
